- Test Description: TLR3 IRF3 reporter activation blockers – cell-based, poly I:C stimulus, luciferase, 10K MLSCN set, primary screen (AID 602277)
- Cond: HEK293-TLR3 RL24 IRF3 luciferase reporter, at 10 µM
Calls of active or inactive are those of the source.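 How the source made its calls: active means inhibition of the reporter signal at or above 50%; inactive means inhibition below 50%.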
Labels: True = active, False = inactive

Compound: CCOC(=O)c1oc2cc(OCC(N)=O)ccc2c(=O)c1-c1ccc(OC)c(OC)c1
Group Label: False
//
Compound: COc1ccc(CC(NC(C)=O)C(=O)NC2CCN(c3nc(C)cc(C)c3C#N)CC2)c(OC)c1 (stereo not drawn)
Group Label: False
//
Compound: COC(=O)c1ccc(C(=O)OC)c(NC(=O)Nc2ccc3c(c2)OCO3)c1
Group Label: False
//
Compound: COc1ccccc1OCc1ccc(C(=O)Nc2ccncc2)o1
Group Label: False
//
Compound: CCn1cnc2sc(C(=O)Nc3ccc4c(c3)OCO4)c(C)c2c1=O
Group Label: False
//
Compound: CC(C(=O)N1CCCCC1)n1sc2ccccc2c1=O (stereo not drawn)
Group Label: False
//
Compound: Cc1ccc(OCC(O)Cn2c(=N)n(CCN3CCCCC3)c3ccccc32)cc1 (stereo not drawn)
Group Label: True
//
Compound: COc1ccc(C(c2sc3nc(C)nn3c2O)N2CCCCC2)cc1 (stereo not drawn)
Group Label: False

Source listed as PubChem BioAssay.
